System tested: human CD137 (human, UniProt Q07011 24-186)
Sequence (Q07011 24-186 limits assumed): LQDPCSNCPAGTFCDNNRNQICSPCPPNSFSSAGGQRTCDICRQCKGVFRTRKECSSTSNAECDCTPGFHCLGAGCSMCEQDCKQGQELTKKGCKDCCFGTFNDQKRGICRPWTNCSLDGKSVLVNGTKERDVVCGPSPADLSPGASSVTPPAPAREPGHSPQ
Assay overview: SPR Biacore T200, IgG captured on protein A, 25 C;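 note: antigens diluted in ACES running buffer at pH 7.4 were flowed over antibodies held on a CM3 chip bearing amine-coupled protein A, with buffer alone serving as blank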

- Binder: "dBBDu189/L126 (antibody, V domains shown, IgG format; constant regions not specified) VH: QVQLVESGGGLVQPGRSLRLSCAASGFTFSNAWMHWVRQAPGKGLEWIAQIKDRSNQYATYYAPSVKGRFTISRDDSKNSIYLQMNSLKTEDTAVYYCHYVHYAQASSLLPSFGVDAWGQGTTVTVSS VL: DIVMTQSPLSLPVTPGEPASISCRTSEELLHINRYIFLHWYQQKPGQAPRLLIYKVQNRFSGVPDRFSGSGSGTDFTLKISRVEAEDVGVYYCAQGSAVPFTFGQGTKLEIK"
  kon (M⁻¹ s⁻¹): 1340
- Binder: "dBBDu193/L127 (antibody, V domains shown, IgG format; constant regions not specified; also called dBBDu_193 dBBDu.L127) VH: QVQLVESGGGLVQPGRSLRLSCAASGFTFSNAWMHWVRQAPGKGLEWVAQIKDRSNQYATYYAPSVKGRFTISRDDSKNSIYLQMNSLKTEDTAVYYCHYVHYSAASTLLPSFGVDAWGQGTTVTVSS VL: DIVMTQSPLSLPVTPGEPASISCRASEELLHINRHIFLHWYQQKPGQAPRLLIYKVYNRFTGVPDRFSGSGSGTDFTLKISRVEAEDVGVYYCAQGTSVPFTFGQGTKLEIK"
  kon (M⁻¹ s⁻¹): 440
- Binder: "dBBDu189/L119 (antibody, V domains shown, IgG format; constant regions not specified) VH: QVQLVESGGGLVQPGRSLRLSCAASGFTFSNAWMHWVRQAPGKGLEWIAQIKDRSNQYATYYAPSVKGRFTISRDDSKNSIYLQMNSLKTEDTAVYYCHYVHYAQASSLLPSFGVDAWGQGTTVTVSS VL: DIVMTQSPLSLPVTPGEPASISCTASQELVHINRFIFLHWYQQKPGQAPRLLIYKVSNRFIGVPDRFSGSGSGTDFTLKISRVEAEDVGVYYCAQGSQVPFTFGQGTKLEIK"
  kon (M⁻¹ s⁻¹): 148

Origin of values: patent US20210388087A1
